- ASSAY_SUMMARY: ATG_PBREM_CIS: Attagene CIS-FACTORIAL HepG2 Assay for human Phenobarbital-responsive Enhancer Module (PBREM) (AID 2282955)
- ASSAY_CONTEXT: HepG2 PBREM cis-reporter, Attagene multiplexed transcription; actives raise or lower the signal
Activity calls are given as the source filed them. Rule for the calls: active = hit-call score of the fitted dose curve at least 0.9, where 1 is the maximum; inactive = score below 0.9.
TEST_READOUT: AC50

Worked examples follow.
CC(=O)CC(=O)Nc1ccccc1C; inactive
O=C1CCCCCCCCCCC1; 22.2 µM (active)
Nc1ncnc2nc[nH]c12; inactive
C=CC(=O)OCCCCCCOC(=O)C=C; inactive
COC(OC)(C(=O)c1ccccc1)c1ccccc1; 3.88 µM (active)

// Input: C=C(C)C(=O)OCCOC(=O)C(=C)C . Output its AC50 only. inactive

// Input: O=C(O)CCC(=O)O . Output its AC50 only. inactive

// Input: CCCCOCC(C)O (stereo not drawn) . Output its AC50 only. inactive

* * *

- ASSAY_SUMMARY: ATG_FoxO_CIS: Attagene CIS-FACTORIAL HepG2 Assay for human Forkhead box O (FoxO) (AID 2282943)
- ASSAY_CONTEXT: HepG2 Attagene cis-reporter, FoxO element, mRNA; actives raise or lower the signal
Calls of active or inactive are those of the source. The calls were made as follows: active = hit-call score of the fitted dose curve at least 0.9, where 1 is the maximum; inactive = score below 0.9.
TEST_READOUT: AC50

Worked examples follow.
O=C(C=Cc1ccccc1)OCCc1ccccc1; inactive
CO[Si](C)(C)OC; inactive
O=C(O)CC(C(=O)O)S(=O)(=O)O (configuration not stated); inactive
CC1=CP(=O)(c2ccccc2)CC1 (configuration not stated); inactive
O=C(Cl)c1ccc(C(=O)Cl)cc1; inactive

// Input: c1ccc2sc(SSN3CCOCC3)nc2c1 . Output its AC50 only. 158 µM (active)

// Input: CCOC(=O)C1=NOC(c2ccccc2)(c2ccccc2)C1 . Output its AC50 only. inactive

* * *

- TGT: Estrogen receptor (Homo sapiens)
- ASSAY_SUMMARY: OT_ERa_GFPERaERE_0120: Odyssey Thera (OT) 2-hour HeLa Transcription Induction Assay for Estrogen Receptor (AID 2283382)
Active and inactive are the calls of the source. Rule for the calls: active = hit-call score of the fitted dose curve at least 0.9, where 1 is the maximum; inconclusive = response in the unintended direction; inactive = score below 0.9.
Choose one outcome from this list and give only that: true for active, false for inactive

Example results:
CC(=O)OC(C)c1ccccc1 (centres undefined); false
CCCCCCCOC(=O)c1ccc(O)cc1; true
O=C(O)C1CCC(C(=O)O)CC1 (centres undefined); false

For this compound, state the assay outcome: CCCC=C(C=O)CC false

For this compound, state the assay outcome: CCN1CN(CC)CN(CC)C1 false

For this compound, state the assay outcome: CC(CCC(=O)O)(c1ccc(O)cc1)c1ccc(O)cc1 true

For this compound, state the assay outcome: CC(C)c1ccc(O)c(C(C)C)c1 false

For this compound, state the assay outcome: CCc1cccc(C)c1N false

For this compound, state the assay outcome: CC(C)(c1ccccc1)c1ccc(Nc2ccc(C(C)(C)c3ccccc3)cc2)cc1 false

* * *

- ASSAY_SUMMARY: CEETOX_H295R_MTT_cell_viability: Viability Assessment in the CeeTox HT-H295R MTT Assay (AID 2283718)
Active and inactive are the calls of the source. Rule for the calls: active = hit-call score of the fitted dose curve at least 0.9, where 1 is the maximum; inactive = score below 0.9.
Choose one outcome from this list and give only that: YES (active), NO (inactive)

Example results:
CCN1CN(CC)CN(CC)C1; YES
C=C[C@@]1(C)CC(=O)[C@]2(O)[C@@]3(C)[C@@H](O)CCC(C)(C)[C@@H]3[C@H](O)[C@H](OC(C)=O)[C@@]2(C)O1; NO
COc1ccc(C(=O)c2ccccc2)c(O)c1; NO
O=C(OCc1ccccc1)c1ccc(O)cc1; YES
N#Cc1ccc(C(c2ccc(C#N)cc2)n2cncn2)cc1; NO

For this molecule, state the assay outcome: CCCC=C(C=O)CC NO
